test system: human abdominal skin explants
measured-endpoint: Amount of metabolite in the medium after 24 h (% Applied dose)

(a) O=C(O)C1OC(Oc2cccc(O)c2)C(O)C(O)C1O (stereo not shown) [R‐glucuronide]
(b) O=S(=O)(O)Oc1cccc(O)c1 [R‐sulfate]
Exam item: Could you determine which record has the numerically smaller Amount of metabolite in the medium after 24 h? Candidates: a and b Your choice should be expressed through its label.
Marked response: b

* * *

Reported Mass balance (% of applied dose at end of incubation) values for a set of compounds
Test system: pig ear skin explants
Test: Cutaneous distribution and mass balance of radioactivity in pig skin explants
Details: pig skin, 48 h, 2.4 nmol/cm^2
Procedure: Human abdominal skin was obtained (with consent for research from a commercial supplier [L’Union Clinic, Rangueil hospital and Icelltis, Toulouse, France] with certified ethical procedures) from six male and 34 female healthy donors, 41 ± 11 years of age, undergoing cosmetic surgery. Abdominal skin was kept at 4°C during transports and placed in culture within 3 hours of surgery. […] Pig skin explants were digested using 3 mL Soluable (60°C for 24 hours) and counted by liquid scintillation. […]

// known answers, use as guide
OCC=Cc1ccccc1 : 96.8 ± 1.9 % of applied dose
Oc1cccc(O)c1 : 92.7 ± 5.92 % of applied dose
Nc1ccc(Cl)cc1 : 99.2 ± 10.8 % of applied dose

Query compound follows.
Exam item: Recorded Mass balance (% of applied dose at end of incubation) of COc1cc(C=O)ccc1O , please.
Marked response: 90.7 ± 1.7 % of applied dose
